pIC50: −log10 of the molar value.
The following compounds have recorded pIC50 on PI3K α (Homo sapiens, UniProt P42336).
Sequence (P42336 whole entry): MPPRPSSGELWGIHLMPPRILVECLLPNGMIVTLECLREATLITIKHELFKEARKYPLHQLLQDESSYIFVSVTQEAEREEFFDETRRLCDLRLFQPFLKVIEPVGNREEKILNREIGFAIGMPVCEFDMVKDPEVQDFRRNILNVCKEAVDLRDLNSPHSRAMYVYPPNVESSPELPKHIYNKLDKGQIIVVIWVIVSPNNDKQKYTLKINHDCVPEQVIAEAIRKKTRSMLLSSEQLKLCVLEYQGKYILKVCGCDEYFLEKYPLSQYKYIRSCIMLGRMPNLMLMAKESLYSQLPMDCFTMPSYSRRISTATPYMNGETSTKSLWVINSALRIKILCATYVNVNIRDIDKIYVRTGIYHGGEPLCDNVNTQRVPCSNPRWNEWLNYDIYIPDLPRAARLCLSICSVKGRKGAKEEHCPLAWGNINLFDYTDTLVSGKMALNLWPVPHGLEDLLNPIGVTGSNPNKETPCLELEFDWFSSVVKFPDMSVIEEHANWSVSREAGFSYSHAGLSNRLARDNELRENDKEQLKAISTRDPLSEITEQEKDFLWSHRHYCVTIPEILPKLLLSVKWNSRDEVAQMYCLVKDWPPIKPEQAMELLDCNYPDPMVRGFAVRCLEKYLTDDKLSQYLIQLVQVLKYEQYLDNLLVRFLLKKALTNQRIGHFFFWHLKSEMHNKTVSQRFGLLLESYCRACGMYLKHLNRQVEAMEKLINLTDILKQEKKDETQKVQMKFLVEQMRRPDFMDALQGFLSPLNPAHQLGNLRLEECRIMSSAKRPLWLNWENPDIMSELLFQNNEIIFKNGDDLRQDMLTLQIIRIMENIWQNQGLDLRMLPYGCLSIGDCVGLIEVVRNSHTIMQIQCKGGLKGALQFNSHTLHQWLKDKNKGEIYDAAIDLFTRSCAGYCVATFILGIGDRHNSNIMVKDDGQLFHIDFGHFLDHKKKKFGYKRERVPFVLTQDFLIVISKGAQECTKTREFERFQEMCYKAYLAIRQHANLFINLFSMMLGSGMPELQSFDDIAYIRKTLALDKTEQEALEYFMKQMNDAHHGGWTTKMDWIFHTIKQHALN
Sequence (P27986 whole entry partner): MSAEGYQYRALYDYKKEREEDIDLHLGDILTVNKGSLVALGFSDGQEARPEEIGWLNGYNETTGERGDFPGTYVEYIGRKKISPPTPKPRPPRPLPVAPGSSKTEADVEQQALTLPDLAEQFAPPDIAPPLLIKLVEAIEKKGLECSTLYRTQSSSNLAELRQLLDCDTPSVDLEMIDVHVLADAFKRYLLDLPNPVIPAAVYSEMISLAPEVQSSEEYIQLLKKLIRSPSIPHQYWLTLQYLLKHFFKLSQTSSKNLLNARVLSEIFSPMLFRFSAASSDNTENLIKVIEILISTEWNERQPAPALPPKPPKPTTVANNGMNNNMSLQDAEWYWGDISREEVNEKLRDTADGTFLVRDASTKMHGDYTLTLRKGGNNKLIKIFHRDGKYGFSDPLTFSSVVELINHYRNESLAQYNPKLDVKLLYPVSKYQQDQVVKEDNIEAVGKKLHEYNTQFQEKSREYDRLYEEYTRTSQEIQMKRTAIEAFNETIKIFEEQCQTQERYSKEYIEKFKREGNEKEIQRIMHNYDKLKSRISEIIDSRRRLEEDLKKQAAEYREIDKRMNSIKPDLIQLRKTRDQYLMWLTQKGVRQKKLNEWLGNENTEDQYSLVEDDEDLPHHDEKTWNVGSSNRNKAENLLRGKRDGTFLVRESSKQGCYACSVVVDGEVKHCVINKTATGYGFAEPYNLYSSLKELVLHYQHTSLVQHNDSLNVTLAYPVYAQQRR
Measure: pIC50

{"Compound": "C[C@H](NC(=O)c1c(N)nn2cccnc12)c1c(Br)c2cccc(F)c2c(=O)n1-c1ccccc1 [Compound 255]", "System name": "PI3K α (Homo sapiens, UniProt P42336)", "Measure": "pIC50", "Data value": "5.00 to 6.00"}
{"Compound": "C[C@H](NC(=O)c1nc(-c2cccc(O)c2)cnc1N)c1cc2cccc(Cl)c2c(=O)n1-c1ccccc1 [Compound 104]", "System name": "PI3K α (Homo sapiens, UniProt P42336)", "Measure": "pIC50", "Data value": "< 5.00"}
{"Compound": "CC(=O)Nc1ncc(-c2cccc3cc([C@H](C)NC(=O)c4c(N)nn5cccnc45)n(-c4ccccc4)c(=O)c23)s1 [Compound 247]", "System name": "PI3K α (Homo sapiens, UniProt P42336)", "Measure": "pIC50", "Data value": "5.00 to 6.00"}
{"Compound": "Cc1cnc(N)c(C(=O)N[C@@H](C)c2cc3cccc(Cl)c3c(=O)n2-c2ccccc2)n1 [Compound 89]", "System name": "PI3K α (Homo sapiens, UniProt P42336)", "Measure": "pIC50", "Data value": "< 5.00"}
{"Compound": "C[C@H](NC(=O)c1nc(-c2cccc(S(=O)(=O)N(C)C)c2)cnc1N)c1cc2cccc(Cl)c2c(=O)n1-c1ccccc1 [Compound 91]", "System name": "PI3K α (Homo sapiens, UniProt P42336)", "Measure": "pIC50", "Data value": "< 5.00"}
{"Compound": "C[C@H](NC(=O)c1c(N)nn2cccnc12)C1Cc2cccc(F)c2C(=O)N1c1ccccc1 (stereo partly shown) [Compound 304]", "System name": "PI3K α (Homo sapiens, UniProt P42336)", "Measure": "pIC50", "Data value": "< 5.00"}
{"Compound": "C[C@H](NC(=O)c1c(N)nn2cccnc12)c1cc2cccc(N3CCOCC3)c2c(=O)n1-c1ccccc1 [Compound 184]", "System name": "PI3K α (Homo sapiens, UniProt P42336)", "Measure": "pIC50", "Data value": "< 5.00"}

----------
pIC50: −log10 of the molar value.
The following molecules have recorded pIC50 on PI3K δ (Homo sapiens, UniProt O00329).
Sequence (O00329 whole entry, one chain of several): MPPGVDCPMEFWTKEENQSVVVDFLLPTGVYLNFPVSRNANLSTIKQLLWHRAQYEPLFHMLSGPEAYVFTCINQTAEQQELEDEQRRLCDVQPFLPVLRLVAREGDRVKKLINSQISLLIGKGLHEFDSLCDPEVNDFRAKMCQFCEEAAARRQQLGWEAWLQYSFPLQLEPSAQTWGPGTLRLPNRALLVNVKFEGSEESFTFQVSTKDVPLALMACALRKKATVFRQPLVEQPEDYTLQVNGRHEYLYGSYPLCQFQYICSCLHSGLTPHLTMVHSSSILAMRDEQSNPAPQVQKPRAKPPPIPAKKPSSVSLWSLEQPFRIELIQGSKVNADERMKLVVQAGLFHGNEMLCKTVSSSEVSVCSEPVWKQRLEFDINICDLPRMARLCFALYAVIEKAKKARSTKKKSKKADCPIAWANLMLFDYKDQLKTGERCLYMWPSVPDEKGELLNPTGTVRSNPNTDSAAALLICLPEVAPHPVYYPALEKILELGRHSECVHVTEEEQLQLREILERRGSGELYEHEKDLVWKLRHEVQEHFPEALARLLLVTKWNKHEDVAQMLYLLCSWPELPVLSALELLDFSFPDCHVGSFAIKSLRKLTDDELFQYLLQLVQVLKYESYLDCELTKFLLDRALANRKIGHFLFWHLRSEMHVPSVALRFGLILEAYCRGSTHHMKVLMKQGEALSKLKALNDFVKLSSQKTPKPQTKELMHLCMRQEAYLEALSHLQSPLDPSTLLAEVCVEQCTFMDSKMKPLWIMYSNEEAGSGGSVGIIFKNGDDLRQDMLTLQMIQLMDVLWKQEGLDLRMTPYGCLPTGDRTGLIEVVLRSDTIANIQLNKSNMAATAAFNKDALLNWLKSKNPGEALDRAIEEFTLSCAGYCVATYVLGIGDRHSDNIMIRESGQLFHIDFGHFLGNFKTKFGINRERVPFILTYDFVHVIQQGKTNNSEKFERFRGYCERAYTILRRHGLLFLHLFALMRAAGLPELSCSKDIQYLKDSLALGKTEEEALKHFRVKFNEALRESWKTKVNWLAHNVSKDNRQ

{"Chemical string": "C[C@H](NC(=O)c1cncc2cccnc12)c1cc2cccc(Cl)c2c(=O)n1-c1ccccc1", "pIC50": "6.00 to 7.00"}
{"Chemical string": "COc1cc(-c2cccc3cc([C@H](C)NC(=O)c4c(N)nn5cccnc45)n(-c4cccc(F)c4)c(=O)c23)ccn1", "pIC50": "5.00 to 6.00"}
{"Chemical string": "COc1cc(-c2cccc3nc([C@H](C)NC(=O)c4c(N)nn5cccnc45)n(-c4ccccc4)c(=O)c23)ccn1", "pIC50": "6.00 to 7.00"}
{"Chemical string": "C[C@H](NC(=O)c1c(N)nn2cccnc12)c1cc2cccc(C#CCNC(=O)C3CCCCC3)c2c(=O)n1-c1ccccc1", "pIC50": "5.00 to 6.00"}
{"Chemical string": "CC(=O)N(C)Cc1cccc2cc([C@H](C)NC(=O)c3c(N)nn4cccnc34)n(-c3ccccc3)c(=O)c12", "pIC50": "> 7.00"}
{"Chemical string": "CC(C)Oc1ccc(-c2cnc(N)c(C(=O)N[C@@H](C)c3cc4cccc(Cl)c4c(=O)n3-c3ccccc3)n2)cn1", "pIC50": "5.00 to 6.00"}
{"Chemical string": "C[C@H](NC(=O)c1c(N)nn2cccnc12)c1cc2cccc(C#CCNC(=O)C3CC(=O)CC(=O)C3)c2c(=O)n1-c1ccccc1", "pIC50": "6.00 to 7.00"}
